experiment: pharmacokinetics in patients with r/r MCL; conditions: human, in vivo, 150 mg, Tmax (median, minimum-maximum), Day 1 single, 150 mg
experimental_readout: Tmax (h)
Number only, in h; omit the unit.

Query: Data request, read-out Tmax, for C=CC(=O)N1CCC(c2ccc(C(N)=O)c(-c3ccc(Oc4ccccc4)cc3)n2)CC1 [orelabrutinib]
Reply: 2

Source: paper PMC10432605
